- ASSAY NOTES: Hydrolysis half life in glycine/HCl buffer at the specified pH of 1.5
- Type: ADME
- COND: pH 1.5
half-life values for the compounds below.

COMPOUND | RELATION OPERATOR | half-life (min)
Nc1ncnc2c1ncn2[C@H]1C=C[C@@H](CO)O1 | < | 0.6
Nc1ncnc2c1ncn2[C@H]1C=C[C@@H](COP2(=O)OCc3ccccc3O2)O1 (stereo not given in full) | = | 0.6
Cc1cc(C)c2c(c1)COP(=O)(OCC1CCC(n3cnc4c(N)ncnc43)O1)O2 (stereo not given) | = | 43.8
Nc1ncnc2c1ncn2C1CCC(COP2(=O)OCc3ccccc3O2)O1 (stereo not given) | = | 36
OC[C@@H]1C=C[C@H](n2cnc3ncnc(O)c32)O1 | < | 0.6
